# Assay System: proMMP9(67-444;ΔFnII) (SEQ ID NO:5) (Homo sapiens, UniProt P14780, DEL216-390)
# Construct: start methionine (N)
# Sequence (P14780 with tags, fused parts or gaps DEL216-390): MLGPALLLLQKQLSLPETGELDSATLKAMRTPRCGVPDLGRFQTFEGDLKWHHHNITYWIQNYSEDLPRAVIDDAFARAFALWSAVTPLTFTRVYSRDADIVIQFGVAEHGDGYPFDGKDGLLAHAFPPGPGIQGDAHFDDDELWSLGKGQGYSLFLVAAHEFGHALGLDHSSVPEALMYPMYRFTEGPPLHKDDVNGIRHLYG
# Assay Protocol: ThermoFluor binding assay with proMMP9(67-444;ΔFnII)
Endpoint: Kd (nM)

| Structure Smiles | Assay System | Kd [nM] |
| --- | --- | --- |
| Cc1[nH]c2c(ccc3sc(Nc4cc(C(N)=O)ccc4OC(C)C)nc32)c1C | proMMP9(67-444;ΔFnII) (SEQ ID NO:5) (Homo sapiens, UniProt P14780, DEL216-390) | 3300 |

[a] Cn1cnc2c3nc(Nc4ccccc4OCC(F)(F)F)sc3ccc21
[b] CCCn1ncc2c3nc(Nc4cc(S(C)(=O)=O)ccc4OC)sc3ccc21
Higher Kd: a or b ? Please identify the chosen entry by its label.
a

Source: patent US20120129811A1
